pKi: −log10 of the molar value.
System: 5-hydroxytryptamine receptor 6 (Homo sapiens) | Read-out: pKi | Origin: multiple publications
reported.endpoint: pKi

# count of solved cases: 2
Request: Requested read-out pKi, target or system 5-hydroxytryptamine receptor 6 (Homo sapiens), entry Cc1ccc(S(=O)(=O)n2cc(C(F)F)c3c(N4CCNCC4)cccc32)cc1
Result: 8.19

Request: Tell me reported pKi for O=S(=O)(c1cccc(Br)c1)N1Cc2ccccc2[C@@H]2CN(Cc3ccccc3)C[C@H]2C1 (relative stereo) , tested with 5-hydroxytryptamine receptor 6 (Homo sapiens).
Result: 7.24

a. Nc1ccc(S(=O)(=O)n2cc(C3CCN(Cc4ccccc4)C3)c3ccccc32)cc1 (centres unmarked)
b. O=S(=O)(c1ccc(Cl)s1)n1cc(C2CCCNC2)c2cccnc21 (centres unmarked)
Request: For this pair, a and b , which shows a numerically higher pKi? Give the label under which the chosen entry appears.
Result: a
(a: 9.00, b: 8.15)
